src = patent US20200345721A1

Experiment: Naltrexone HCl solubility, HPLC analysis
Assay type: physicochemical
Details: 100% water, water, thermodynamic from solid, sample 100 mg/mL, 100% water, HPLC; read-out: Solubilized Concentration
Where a name gives a salt, the structure may show the parent alone.

| Compound | solubility [mg/mL] |
| --- | --- |
| O=C1CC[C@@]2(O)[C@H]3Cc4ccc(O)c5c4[C@@]2(CCN3CC2CC2)[C@H]1O5 [Naltrexone HCl, naltrexone hydrochloride] | 96.9 |

###

Test: Naltrexone HCl solubility, HPLC analysis
Assay type: physicochemical
Details: 60:40 ethanol:water, aqueous with cosolvent or surfactant or cyclodextrin, thermodynamic from solid, sample 50 mg/mL, 60:40 Ethanol:water, HPLC; read-out: Solubilized Concentration
Structures can show the parent of a compound that is named as a salt.

| Molecule | solubility at 1 h [mg/mL] |
| --- | --- |
| O=C1CC[C@@]2(O)[C@H]3Cc4ccc(O)c5c4[C@@]2(CCN3CC2CC2)[C@H]1O5 [Naltrexone HCl, naltrexone hydrochloride] | 48.6 |

###

Test: Naltrexone HCl solubility, HPLC analysis
Format: physicochemical
Settings: 100% water, water, thermodynamic from solid, sample 50 mg/mL, 100% water, HPLC; read-out: Solubilized Concentration
Where a name gives a salt, the structure may show the parent alone.

| Molecule | solubility at 1 h |
| --- | --- |
| O=C1CC[C@@]2(O)[C@H]3Cc4ccc(O)c5c4[C@@]2(CCN3CC2CC2)[C@H]1O5 [Naltrexone HCl, naltrexone hydrochloride] | 49 mg/mL |

###

Experiment: Naltrexone HCl solubility, HPLC analysis
Type: physicochemical
Details: 60%/40% ethanol/water, aqueous with cosolvent or surfactant or cyclodextrin, thermodynamic from solid, 60%/40% ethanol/water; read-out: solubility (soluble up to)
Counter-ions that a name gives are not always drawn.
Observation Type: solubility at 2 h

| Compound | Endpoint Value |
| --- | --- |
| O=C1CC[C@@]2(O)[C@H]3Cc4ccc(O)c5c4[C@@]2(CCN3CC2CC2)[C@H]1O5 [Naltrexone HCl, naltrexone hydrochloride] | ≥ 100 mg/mL |
